// provenance: paper PMC11754664

study-target: SB10-H19Y (synthetic Sleeping Beauty transposon, H19Y)
run-description: fluorescence lifetime; Full-length MST: 50 mM Tris pH 7.5, 5 mM MgCl2, 300 mM NaCl, 2% glycerol, 50 mM Arg-Glu, 1 mM TCEP, 0.1% Triton X-100, 0.1 mg/ml BSA, 30 nM Cy5-DNA, room temp
particulars: protein: recombinant; tags: Ni-NTA purified; label: 5' Cy5 on forward strand (MST)
parameter-measured: Kd (nM)
Answer with a number only, understood to be in nM.

// worked examples, Kd included
binder	parameter-measured	measurement-unit	value-measured
DR-core (dsDNA) DNA 1: TCGGAAGTTTACATACAC DNA 2: GTGTATGTAAACTTCCGA	Kd	nM	45.4
Lo (dsDNA) DNA 1: CAGTTGAAGTCGGAAGTTTACATACACTTAAG DNA 2: CTTAAGTGTATGTAAACTTCCGACTTCAACTG	Kd	nM	13.2

// switching to the query binder
*Q* Please give the measured Kd for this binder: Li (dsDNA) DNA 1: TCCAGTGGGTCAGAAGTTTACATACACTAAGT DNA 2: ACTTAGTGTATGTAAACTTCTGACCCACTGGA
*A* 16
